measurement_protocol: Visual solubility estimates by aliquot addition at ambient temperature
Assay type: physicochemical
test_conditions: organic solvent or mixture, thermodynamic from solid, IPA, read-out: Solubility
property_measured: solubility

1. CCOB1Oc2c(cccc2C(=O)OCOC(=O)C(CC)CC)C[C@@H]1NC(=O)CC [Compound 1-ethanolate Form A]    34 mg/mL

====

measurement_protocol: Visual solubility estimates by aliquot addition at ambient temperature
Assay type: physicochemical
test_conditions: organic solvent or mixture, thermodynamic from solid, Diethyl Ether, read-out: Solubility
Procedure: Visual solubility estimates for Compound 1-ethanolate Form A were determined in a variety of solvents and solvent mixtures using an aliquot addition method to aid in experimental design.
property_measured: solubility (µg/mL)

1) CCOB1Oc2c(cccc2C(=O)OCOC(=O)C(CC)CC)C[C@@H]1NC(=O)CC [Compound 1-ethanolate Form A]    9000

====

measurement_protocol: Visual solubility estimates by aliquot addition at ambient temperature
Assay type: physicochemical
test_conditions: organic solvent or mixture, thermodynamic from solid, Acetone, read-out: Solubility
property_measured: solubility (mg/mL)

1. CCOB1Oc2c(cccc2C(=O)OCOC(=O)C(CC)CC)C[C@@H]1NC(=O)CC [Compound 1-ethanolate Form A]    34

====

measurement_protocol: Visual solubility estimates by aliquot addition at ambient temperature
Format: physicochemical
test_conditions: organic solvent or mixture, thermodynamic from solid, EtOAc, read-out: Solubility
Method: Visual solubility estimates for Compound 1-ethanolate Form A were determined in a variety of solvents and solvent mixtures using an aliquot addition method to aid in experimental design.
property_measured: solubility

1. CCOB1Oc2c(cccc2C(=O)OCOC(=O)C(CC)CC)C[C@@H]1NC(=O)CC [Compound 1-ethanolate Form A]    > 68 mg/mL

====

measurement_protocol: Visual solubility estimates by aliquot addition at ambient temperature
Format: physicochemical
test_conditions: organic solvent or mixture, thermodynamic from solid, DCM, read-out: Solubility
property_measured: solubility (mg/mL)

1. CCOB1Oc2c(cccc2C(=O)OCOC(=O)C(CC)CC)C[C@@H]1NC(=O)CC [Compound 1-ethanolate Form A]    34

====

measurement_protocol: Visual solubility estimates by aliquot addition at ambient temperature
Assay type: physicochemical
test_conditions: organic solvent or mixture, thermodynamic from solid, Cyclohexane:EtOH 90:10 by volume, read-out: Solubility
property_measured: solubility (mg/mL)

1. CCOB1Oc2c(cccc2C(=O)OCOC(=O)C(CC)CC)C[C@@H]1NC(=O)CC [Compound 1-ethanolate Form A]    17

====

measurement_protocol: Visual solubility estimates by aliquot addition at ambient temperature
Format: physicochemical
test_conditions: organic solvent or mixture, thermodynamic from solid, TFE, read-out: Solubility
property_measured: solubility

1) CCOB1Oc2c(cccc2C(=O)OCOC(=O)C(CC)CC)C[C@@H]1NC(=O)CC [Compound 1-ethanolate Form A]    > 66 mg/mL

====

measurement_protocol: Visual solubility estimates by aliquot addition at ambient temperature
Assay type: physicochemical
test_conditions: organic solvent or mixture, thermodynamic from solid, Xylene, read-out: Solubility
property_measured: solubility (mg/mL)

1) CCOB1Oc2c(cccc2C(=O)OCOC(=O)C(CC)CC)C[C@@H]1NC(=O)CC [Compound 1-ethanolate Form A]    17

====

measurement_protocol: Visual solubility estimates by aliquot addition at ambient temperature
Type: physicochemical
test_conditions: organic solvent or mixture, thermodynamic from solid, Cyclohexane:EtOAc 3:1 by volume, read-out: Solubility
property_measured: solubility (µg/mL)

1. CCOB1Oc2c(cccc2C(=O)OCOC(=O)C(CC)CC)C[C@@H]1NC(=O)CC [Compound 1-ethanolate Form A]    4000

====

measurement_protocol: Visual solubility estimates by aliquot addition at ambient temperature
Assay type: physicochemical
test_conditions: organic solvent or mixture, thermodynamic from solid, IPOAc, read-out: Solubility
property_measured: solubility

1) CCOB1Oc2c(cccc2C(=O)OCOC(=O)C(CC)CC)C[C@@H]1NC(=O)CC [Compound 1-ethanolate Form A]    > 66 mg/mL

====

measurement_protocol: Visual solubility estimates by aliquot addition at ambient temperature
Type: physicochemical
test_conditions: organic solvent or mixture, thermodynamic from solid, DMSO, read-out: Solubility
property_measured: solubility

1. CCOB1Oc2c(cccc2C(=O)OCOC(=O)C(CC)CC)C[C@@H]1NC(=O)CC [Compound 1-ethanolate Form A]    > 71 mg/mL

====

measurement_protocol: Visual solubility estimates by aliquot addition at ambient temperature
Type: physicochemical
test_conditions: organic solvent or mixture, thermodynamic from solid, ACN, read-out: Solubility
property_measured: solubility

1) CCOB1Oc2c(cccc2C(=O)OCOC(=O)C(CC)CC)C[C@@H]1NC(=O)CC [Compound 1-ethanolate Form A]    > 66 mg/mL

====

measurement_protocol: Visual solubility estimates by aliquot addition at ambient temperature
Format: physicochemical
test_conditions: organic solvent or mixture, thermodynamic from solid, Heptane:MEK 2:1 by volume, read-out: Solubility
Description: Visual solubility estimates for Compound 1-ethanolate Form A were determined in a variety of solvents and solvent mixtures using an aliquot addition method to aid in experimental design.
property_measured: solubility

1) CCOB1Oc2c(cccc2C(=O)OCOC(=O)C(CC)CC)C[C@@H]1NC(=O)CC [Compound 1-ethanolate Form A]    22 mg/mL

====

measurement_protocol: Visual solubility estimates by aliquot addition at ambient temperature
Type: physicochemical
test_conditions: organic solvent or mixture, thermodynamic from solid, MEK, read-out: Solubility
property_measured: solubility

1) CCOB1Oc2c(cccc2C(=O)OCOC(=O)C(CC)CC)C[C@@H]1NC(=O)CC [Compound 1-ethanolate Form A]    37 mg/mL

====

measurement_protocol: Visual solubility estimates by aliquot addition at ambient temperature
Format: physicochemical
test_conditions: organic solvent or mixture, thermodynamic from solid, Chloroform, read-out: Solubility
property_measured: solubility (mg/mL)

1. CCOB1Oc2c(cccc2C(=O)OCOC(=O)C(CC)CC)C[C@@H]1NC(=O)CC [Compound 1-ethanolate Form A]    36

====

measurement_protocol: Visual solubility estimates by aliquot addition at ambient temperature
Type: physicochemical
test_conditions: organic solvent or mixture, thermodynamic from solid, Anisole, read-out: Solubility
property_measured: solubility (mg/mL)

1) CCOB1Oc2c(cccc2C(=O)OCOC(=O)C(CC)CC)C[C@@H]1NC(=O)CC [Compound 1-ethanolate Form A]    35
